- tested_on: GST-LSD1 (Homo sapiens)
- protocol_description: biochemical
- Assay type: biochemical
value_kind: KI (inactivation) (µM)

Consider the following illustrative entries.
NNCCOc1ccccc1 [10a] | 44
NNCCCOc1ccccc1 [10b] | 12
NNCCc1ccc(NC(=O)c2ccccc2)cc1 [12a] | 0.28
NNCCCCc1ccccc1 | 22

P = NNCCc1ccc(NC(=O)Cc2ccccc2)cc1 [12b]
Q = COc1ccc(CCCNN)cc1.Cl.Cl
IN: Which numeric KI (inactivation) is bigger, that of P or that of Q ? Choose, then provide that item's label.
OUT: Q

----------
- tested_on: GST-LSD1 (Homo sapiens)
- protocol_description: biochemical
- Format: biochemical
value_kind: kinact (s⁻¹)

NNCCc1ccc(NC(=O)CCCc2ccc([N+](=O)[O-])cc2)cc1 [12i] | 0.0035
NNCCc1ccc(NC(=O)CCCCc2ccccc2)cc1 [12e] | 0.00367
NNCCc1ccc(NC(=O)c2ccccc2)cc1 [12a] | 0.00317
NNCCc1ccc(NC(=O)/C=C/c2ccccc2)cc1 [compound 13] | 0.00283
CN(C(=O)CCCc1ccccc1)c1ccc(CCNN)cc1.O=C(O)C(=O)O [12l] | 0.004
